- test_system: PRMT5-MEP50 (Homo sapiens)
- Construct: biotin (in vivo biotinylated)
- experiment_summary: SPR binding assay (PRMT5.MTA and PRMT5·SAM surfaces)
- recorded_conditions: PRMT5·SAM surface, SAM running buffer (20 μM SAM), steady-state fit; read-out: KD SAM
pKd: −log10 of the molar value. Structures can show the parent of a compound that is named as a salt.
Form field: pKd (one value per entry).
metric: pKd

[
  {
    "compound": "CN(Cc1nnc2n1CCOC2)c1ccc2c(c1)nc(N)n2C",
    "metric": "pKd",
    "assay_value": 4.38
  },
  {
    "compound": "COc1c(Cc2cccnc2)cc(C#N)c2c1nc(N)n2C [Example 3-22, hydrochloride]",
    "metric": "pKd",
    "assay_value": 4.10
  },
  {
    "compound": "Cn1cc(-c2ccc3c(c2)nc(N)n3C)cn1",
    "metric": "pKd",
    "assay_value": 3.73
  }
]

* * *

Form field: Kd (one value per entry).
- test_system: PRMT5-MEP50 (Homo sapiens)
- Construct: biotin (in vivo biotinylated)
- experiment_summary: SPR binding assay (PRMT5.MTA and PRMT5·SAM surfaces)
- recorded_conditions: PRMT5·SAM surface, SAM running buffer (20 μM SAM), steady-state fit; read-out: KD SAM
Where a name gives a salt, the structure may show the parent alone.
metric: Kd

[
  {
    "compound": "Cn1nccc1Cc1cc(C#N)c2c(c1)nc(N)n2C [Example 3-8]",
    "assay_value": "10.2 µM"
  },
  {
    "compound": "Cn1ncc(-c2cccc3c2nc(N)n3C)c1-c1ccccc1C#N [Example 1-87, hydrochloride]",
    "assay_value": "1.67 µM"
  },
  {
    "compound": "Cn1c(N)nc2cc(Cc3cccnc3)cc(Cl)c21 [Example 2-10, hydrochloride]",
    "assay_value": "48.4 µM"
  },
  {
    "compound": "Cn1ncc(-c2ccc(Cl)c3c2nc(N)n3C)c1-c1c(F)cc2ccccc2c1C#N [Example 2-2, hydrochloride]",
    "assay_value": "0.679 µM"
  },
  {
    "compound": "Cn1c(N)nc2cc(Cc3cccnc3)cc(C#N)c21 [Example 3-2]",
    "assay_value": "35.6 µM"
  },
  {
    "compound": "Cn1ccc(-c2ccc3c(c2)nc(N)n3C)n1 [Example 1-2]",
    "assay_value": "65.8 µM"
  },
  {
    "compound": "COc1cccc(CN(C)c2ccc3c(c2)nc(N)n3C)c1 [Example 1-48]",
    "assay_value": "108 µM"
  },
  {
    "compound": "Cn1cc(Cc2cc(C#N)c3c(c2)nc(N)n3C)cn1 [Example 3-6]",
    "assay_value": "1.94 µM"
  },
  {
    "compound": "Cn1c(N)nc2c(Nc3cnc4c(c3)CCCC4)ccc(Cl)c21 [Example 2-4, hydrochloride]",
    "assay_value": "40.9 µM"
  },
  {
    "compound": "Nc1nc2ncccc2n1Cc1ccccc1 [Example 5-2, hydrochloride]",
    "assay_value": "176 µM"
  },
  {
    "compound": "Cn1c(N)nc2cc(Cc3ccc4ccncc4c3)cc(C#N)c21 [Example 3-9]",
    "assay_value": "3.67 µM"
  },
  {
    "compound": "Cn1c(N)nc2cc(Cc3ccccn3)cc(C#N)c21 [Example 3-3]",
    "assay_value": "2.75 µM"
  },
  {
    "compound": "Cn1nccc1-c1ccc2c(c1)nc(N)n2C [Example 1-56]",
    "assay_value": "51.9 µM"
  },
  {
    "compound": "Cn1c(N)nc2c(Nc3cnc4c(c3)CCCC4)ccc(C#N)c21 [Example 3-30]",
    "assay_value": "32.5 µM"
  },
  {
    "compound": "CN(c1cccnc1)c1cc(Cl)c2c(c1)nc(N)n2C [Example 2-9, hydrochloride]",
    "assay_value": "175 µM"
  },
  {
    "compound": "Cc1ncc(CNc2cccc3c2nc(N)n3C)n1-c1ccccc1 [Example 1-12]",
    "assay_value": "19.7 µM"
  },
  {
    "compound": "Cn1ncc(-c2cc(Cl)cc3c2nc(N)n3C)c1-c1ccccc1C#N [Example 6-1]",
    "assay_value": "0.816 µM"
  },
  {
    "compound": "Cn1nc(-c2cc(C#N)c3c(c2)nc(N)n3C)c2cnccc21 [Example 3-5]",
    "assay_value": "2.77 µM"
  },
  {
    "compound": "Cn1c(N)nc2cc(C(=O)c3cccnc3)cc(C#N)c21 [Example 3-16]",
    "assay_value": "23.6 µM"
  },
  {
    "compound": "Cn1c(N)nc2c(Nc3cnc4c(c3)CCCC4)cccc21 [Example 1-19]",
    "assay_value": "203 µM"
  }
]

* * *

Form field: pIC50 (one value per entry).
- test_system: PRMT5/MEP50 complex (Homo sapiens)
- Construct: purchased Reaction Biology Corporation
- Sequence (O14744 2-637 limits assumed): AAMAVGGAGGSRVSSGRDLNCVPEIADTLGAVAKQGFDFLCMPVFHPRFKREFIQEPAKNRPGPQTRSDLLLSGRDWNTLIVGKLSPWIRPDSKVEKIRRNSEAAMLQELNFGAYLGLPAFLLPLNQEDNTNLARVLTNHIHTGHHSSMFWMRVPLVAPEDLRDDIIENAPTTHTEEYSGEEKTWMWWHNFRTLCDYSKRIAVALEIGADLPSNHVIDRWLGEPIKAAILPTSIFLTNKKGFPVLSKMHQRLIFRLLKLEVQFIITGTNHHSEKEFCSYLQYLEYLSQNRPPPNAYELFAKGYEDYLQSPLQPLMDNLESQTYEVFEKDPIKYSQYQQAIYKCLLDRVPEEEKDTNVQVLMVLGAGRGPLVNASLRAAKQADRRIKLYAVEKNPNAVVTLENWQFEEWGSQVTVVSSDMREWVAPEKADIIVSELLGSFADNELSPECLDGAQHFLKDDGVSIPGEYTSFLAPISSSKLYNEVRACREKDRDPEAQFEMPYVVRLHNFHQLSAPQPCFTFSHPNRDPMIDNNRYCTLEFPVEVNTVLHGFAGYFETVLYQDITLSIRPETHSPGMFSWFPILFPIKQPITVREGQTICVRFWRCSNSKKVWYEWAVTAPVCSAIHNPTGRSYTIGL
- Sequence (Q9BQA1 2-342 partner limits assumed): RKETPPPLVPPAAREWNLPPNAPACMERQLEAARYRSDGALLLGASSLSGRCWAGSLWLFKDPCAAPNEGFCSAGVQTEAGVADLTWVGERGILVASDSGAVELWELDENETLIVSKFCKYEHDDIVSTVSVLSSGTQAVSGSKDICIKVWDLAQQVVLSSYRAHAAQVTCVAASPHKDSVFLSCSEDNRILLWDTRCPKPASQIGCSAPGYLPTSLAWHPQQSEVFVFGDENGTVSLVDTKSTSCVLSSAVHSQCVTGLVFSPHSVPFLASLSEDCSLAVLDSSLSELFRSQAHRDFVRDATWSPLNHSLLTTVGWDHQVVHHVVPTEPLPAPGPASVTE
- experiment_summary: PRMT5:MEP50 FlashPlate Assay (histone H4 peptide methylation)
- Format: biochemical
- recorded_conditions: IC50 + 2 μM MTA, plus 2 μM MTA, 40 nM H4 (1-15) peptide, 1 μM SAM
pIC50: −log10 of the molar value. Where a name gives a salt, the structure may show the parent alone.

[
  {
    "compound": "Cn1c(N)nc2cc(Cc3cccnc3)cc(C#N)c21",
    "pIC50": 3.96
  },
  {
    "compound": "CCO[C@@H]1COC[C@H]1Nc1cccc2c1nc(N)n2C (racemic)",
    "pIC50": "< 3.52"
  },
  {
    "compound": "CCn1cnnc1CNc1cc(C#N)c2c(c1)nc(N)n2C",
    "pIC50": 6.14
  },
  {
    "compound": "Cn1nnc(CNc2cc(C#N)c3c(c2)nc(N)n3C)c1C(F)F",
    "pIC50": 6.37
  },
  {
    "compound": "Cn1c(N)nc2cc(-c3ccnnc3)ccc21",
    "pIC50": "< 3.52"
  },
  {
    "compound": "CN(Cc1nnc2n1CCOC2)c1ccc2c(c1)nc(N)n2C",
    "pIC50": "< 3.52"
  },
  {
    "compound": "Cn1c(N)nc2cc(Nc3cnccn3)ccc21",
    "pIC50": 4.29
  },
  {
    "compound": "Cn1c(N)nc2c(C3CCOC3)ccc(Cl)c21 (centres unmarked) [Example 2-8, hydrochloride]",
    "pIC50": "< 3.52"
  },
  {
    "compound": "Cn1nccc1-c1cccc2c1nc(N)n2C",
    "pIC50": "< 3.52"
  },
  {
    "compound": "Cn1c(N)nc2cc(Cc3ccccn3)cc(C(F)F)c21",
    "pIC50": 3.91
  },
  {
    "compound": "Cn1nccc1Cc1cc(C#N)c2c(c1)nc(N)n2C",
    "pIC50": "< 3.52"
  },
  {
    "compound": "Cn1c(N)nc2c(-c3cccnc3)cccc21",
    "pIC50": "< 3.52"
  },
  {
    "compound": "CN(c1cccnc1)c1cc(Cl)c2c(c1)nc(N)n2C [Example 2-9, hydrochloride]",
    "pIC50": "< 3.52"
  },
  {
    "compound": "CN(Cc1nnc2n1CCOC2)c1cccc2c1nc(N)n2C",
    "pIC50": "< 3.52"
  },
  {
    "compound": "Cn1c(N)nc2c(Nc3ccncc3)cccc21",
    "pIC50": "< 3.52"
  },
  {
    "compound": "Cn1c(N)nc2cc(Cc3ccc4ccncc4c3)cc(C#N)c21",
    "pIC50": 4.77
  },
  {
    "compound": "CN1C(=O)CCC1c1ccc(Cl)c2c1nc(N)n2C (centres unmarked) [Example 2-5, hydrochloride]",
    "pIC50": "< 3.52"
  },
  {
    "compound": "Cn1c(N)nc2c(Nc3ccncn3)cccc21",
    "pIC50": "< 3.52"
  },
  {
    "compound": "Cn1c(N)nc2c(NCc3cn4cccc(F)c4n3)cccc21",
    "pIC50": 3.74
  },
  {
    "compound": "Cn1c(N)nc2c(Nc3cnc4c(c3)CCCC4)ccc(Cl)c21 [Example 2-4, hydrochloride]",
    "pIC50": "< 3.52"
  }
]

* * *

- test_system: PRMT5-MEP50 (Homo sapiens, UniProt O14744)
- Construct: biotin (in vivo biotinylated)
- Sequence (O14744 whole entry): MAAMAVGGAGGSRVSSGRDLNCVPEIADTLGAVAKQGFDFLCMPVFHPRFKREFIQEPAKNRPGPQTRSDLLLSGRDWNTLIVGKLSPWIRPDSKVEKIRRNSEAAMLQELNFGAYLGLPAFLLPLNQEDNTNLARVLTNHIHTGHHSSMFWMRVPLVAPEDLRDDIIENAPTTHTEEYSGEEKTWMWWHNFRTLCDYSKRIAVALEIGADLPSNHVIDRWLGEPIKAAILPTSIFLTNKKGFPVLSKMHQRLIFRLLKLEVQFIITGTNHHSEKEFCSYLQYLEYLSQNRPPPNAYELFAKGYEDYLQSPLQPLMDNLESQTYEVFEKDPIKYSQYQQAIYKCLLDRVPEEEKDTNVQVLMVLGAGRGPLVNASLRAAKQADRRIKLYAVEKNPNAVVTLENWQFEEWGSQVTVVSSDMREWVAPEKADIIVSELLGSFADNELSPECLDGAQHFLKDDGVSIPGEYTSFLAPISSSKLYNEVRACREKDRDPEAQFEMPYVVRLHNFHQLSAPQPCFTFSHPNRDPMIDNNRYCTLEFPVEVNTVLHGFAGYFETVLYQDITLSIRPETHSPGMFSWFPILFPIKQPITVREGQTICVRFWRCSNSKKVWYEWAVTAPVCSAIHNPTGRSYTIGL
- Sequence (Q9BQA1 whole entry partner): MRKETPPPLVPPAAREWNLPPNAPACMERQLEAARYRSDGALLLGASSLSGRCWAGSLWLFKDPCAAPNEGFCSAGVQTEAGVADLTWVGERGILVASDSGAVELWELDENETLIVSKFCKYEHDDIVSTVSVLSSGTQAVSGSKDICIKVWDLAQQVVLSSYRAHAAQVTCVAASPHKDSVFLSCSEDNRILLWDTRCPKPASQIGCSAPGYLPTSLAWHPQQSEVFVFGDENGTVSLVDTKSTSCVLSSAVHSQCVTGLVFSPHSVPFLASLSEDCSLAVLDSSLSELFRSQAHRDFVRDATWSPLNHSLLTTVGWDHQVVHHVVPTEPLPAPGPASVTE
- experiment_summary: SPR binding assay (PRMT5.MTA and PRMT5·SAM surfaces)
- recorded_conditions: PRMT5.MTA surface, MTA running buffer (20 µM MTA), steady-state fit; read-out: KD MTA
pKd: −log10 of the molar value. Structures can show the parent of a compound that is named as a salt.
Is pKd at least 5? Then criterion met. If not, criterion not met.

[
  {
    "compound": "Cn1ccc(-c2ccc3c(c2)nc(N)n3C)n1 [Example 1-2]",
    "group": "criterion not met"
  },
  {
    "compound": "Cn1ncc(-c2cccc3c2nc(N)n3C)c1-c1ccccc1C#N [Example 1-87, hydrochloride]",
    "group": "criterion met"
  },
  {
    "compound": "Cn1ncc(-c2ccc(Cl)c3c2nc(N)n3C)c1-c1c(F)cc2ccccc2c1C#N [Example 2-2, hydrochloride]",
    "group": "criterion met"
  },
  {
    "compound": "Cn1cc(Cc2cc(C#N)c3c(c2)nc(N)n3C)cn1 [Example 3-6]",
    "group": "criterion met"
  },
  {
    "compound": "Cn1c(N)nc2c(C3CCOC3)ccc(Cl)c21 (centres unmarked) [Example 2-8, hydrochloride]",
    "group": "criterion not met"
  },
  {
    "compound": "Cn1ncc(-c2cc(Cl)cc3c2nc(N)n3C)c1-c1ccccc1C#N [Example 6-1]",
    "group": "criterion met"
  },
  {
    "compound": "Cn1nccc1Cc1cc(C#N)c2c(c1)nc(N)n2C [Example 3-8]",
    "group": "criterion met"
  },
  {
    "compound": "Cn1nc(-c2cc(C#N)c3c(c2)nc(N)n3C)c2cnccc21 [Example 3-5]",
    "group": "criterion met"
  },
  {
    "compound": "CC(C)c1nc(Nc2cccc3c2nc(N)n3C)ns1 [Example 1-42]",
    "group": "criterion not met"
  },
  {
    "compound": "Cn1c(N)nc2cc(Cc3cccnc3)cc(Cl)c21 [Example 2-10, hydrochloride]",
    "group": "criterion met"
  },
  {
    "compound": "Cc1cc(-c2cnn(C)c2-c2ccccc2C#N)c2nc(N)n(C)c2c1 [Example 6-2, hydrochloride]",
    "group": "criterion met"
  },
  {
    "compound": "Cn1c(N)nc2c(Nc3cnc4c(c3)CCCC4)ccc(Cl)c21 [Example 2-4, hydrochloride]",
    "group": "criterion not met"
  },
  {
    "compound": "Cn1c(N)nc2cc(Cc3ccc4ccncc4c3)cc(C#N)c21 [Example 3-9]",
    "group": "criterion met"
  },
  {
    "compound": "COc1c(Cc2cccnc2)cc(C#N)c2c1nc(N)n2C [Example 3-22, hydrochloride]",
    "group": "criterion not met"
  },
  {
    "compound": "COc1cccc(CN(C)c2ccc3c(c2)nc(N)n3C)c1 [Example 1-48]",
    "group": "criterion not met"
  },
  {
    "compound": "Cn1c(N)nc2cc(Cc3cccnc3)cc(C#N)c21 [Example 3-2]",
    "group": "criterion met"
  },
  {
    "compound": "Cc1ncc(CNc2cccc3c2nc(N)n3C)n1-c1ccccc1 [Example 1-12]",
    "group": "criterion met"
  },
  {
    "compound": "Cn1nccc1-c1ccc2c(c1)nc(N)n2C [Example 1-56]",
    "group": "criterion not met"
  },
  {
    "compound": "Cn1c(N)nc2c(Nc3cnc4c(c3)CCCC4)cccc21 [Example 1-19]",
    "group": "criterion not met"
  }
]
